Measured melting point accompanies every entry in the list below.

Examples with their reported melting point follow.
>  <molecule>
O=C(O)c1cccc(-n2ncc3c2CCc2ccccc2-3)c1

>  <melting point>
273 to 275 °C

$$$$
>  <molecule>
COc1cc(-n2nc(C(F)(F)F)cc2-c2ccc(S(C)(=O)=O)cc2)ccc1F

>  <melting point>
159 to 160 °C

$$$$
>  <molecule>
c1ccc(Oc2cccnc2N2CCNCC2)cc1

>  <melting point>
56 to 59 °C

$$$$
>  <molecule>
COc1ccc(OC)c2c1C(=O)c1c(O)c3c(c(O)c1C2=O)CC(=O)CC3

>  <melting point>
173 to 174 °C

$$$$
>  <molecule>
COC(=O)c1ccc(CC(C)NCC(O)c2ccc(O)c(CO)c2)cc1C(=O)OC (stereo unspecified)

>  <melting point>
124 to 129 °C

$$$$
>  <molecule>
O=C1C(=Cc2ccc(F)cc2)C2C=CC1CC2 (stereo unspecified)

>  <melting point>
85 to 86 °C

$$$$
>  <molecule>
CCN1C(=O)C(C)(C)C(=O)N(C)c2cc(CN(CCc3cccnc3)S(=O)(=O)c3ccccc3)ccc21

>  <melting point>
143 to 146 °C

$$$$
>  <molecule>
CN1C(=O)C(c2cccc(-c3cncnc3)c2)(c2cc(C#N)n(C)c2)N=C1N (stereo unspecified)

>  <melting point>
214 to 225 °C

$$$$
>  <molecule>
CCOC(=O)Oc1ccc([N+](=O)[O-])c(C(=O)O)c1

>  <melting point>
132 to 137 °C

$$$$
>  <molecule>
Nc1nc(-c2cc(Cl)ccc2Cl)nc(N2CCC(=O)CC2)n1

>  <melting point>
223 to 225 °C

$$$$

# molecule CC1CCC(=NN)c2ncc(C(N)=O)c(=O)n21 (stereo unspecified) ; its melting point = 248 to 250 °C

Lab note: "CCNC(=O)NCC1=C(n2ccccc2=O)c2cc([N+](=O)[O-])ccc2OC1(C)C" gave melting point of 197 °C

# melting point (molecule: "CN(C(=O)CCN1CCC(C(O)(c2ccc(F)cc2)c2ccc(F)cc2)CC1)c1ccccc1" ) is 73 to 75 °C

Field melting point (entry Cc1c(C)c(N2CCN(c3ccc(C(N)=O)cc3)CC2)c(C)c2c1OC(C)C2 (stereo unspecified) ) reads 240 to 245 °C

Looking up "CN(C(=O)CN(C(=O)CNC(=O)Nc1cccc(/C=C/CO)c1)c1ccccc1)c1ccccc1" , I found its melting point recorded as 85 °C

----------
Recorded melting point by entry

Below, 3 compounds whose answers are already recorded.
>  <compound>
Cc1nc2ccc3c(c2s1)C(=CC#N)CC3

>  <reading>
194 to 195 °C

$$$$
>  <compound>
NC(=O)c1c(N)oc2ccc(Cl)cc2c1=O

>  <reading>
320 °C

$$$$
>  <compound>
Cc1noc(C)c1NC(=O)c1ccc(OC(F)F)c2oc(C3CCOC3)cc12 (centres undefined)

>  <reading>
156 °C

$$$$

// melting point lookup, compound = Cc1nc(C(O)(c2ccsc2)C(F)(F)F)sc1C (centres undefined) , result: 90 to 92 °C

melting point measured on CCC1(CCCCN2CCN(c3ccc(F)cc3)CC2)C(=O)Nc2ccccc21 (centres undefined) = 118 to 119 °C

Measured melting point, "COc1ccc(OCC2(CO)CC2)cc1" : 80 to 81 °C

The recorded melting point for entry "CCN(c1ccc(Cl)cc1[N+](=O)[O-])S(=O)(=O)c1ccc(C)cc1" equals 132 to 134 °C

So, "COc1cccc(-c2nc(-c3ccoc3)n[nH]2)c1" ? Its melting point was 169 to 171 °C

compound O=S(Cc1ccccc1)c1nc2cnccc2[nH]1 (centres undefined) , melting point observed: 190 to 193 °C

----------
Recorded melting point, one value per entry.

>  <molecule>
O=C1NC(=O)c2ccccc2/C1=C/Nc1cccc(CN2CCCCCC2)c1

>  <melting point>
116 to 117 °C

$$$$
>  <molecule>
COCCN1CCN(c2ccc(N3C[C@H](CNC(C)=O)OC3=O)cc2F)CC1

>  <melting point>
144 to 146 °C

$$$$
>  <molecule>
Cc1c(F)c(F)cc2c(=O)c(C(=O)O)cn(C3CC3)c12

>  <melting point>
240 to 243 °C

$$$$
>  <molecule>
COc1ccc2c(c1)C(C(=O)O)c1cccnc1CO2 (configuration not stated)

>  <melting point>
140 to 141 °C

$$$$
>  <molecule>
O=[N+]([O-])c1ccc(C=NCCc2cccs2)cc1

>  <melting point>
83.9 to 84.4 °C

$$$$

molecule "O=C(Nc1cccc(S(=O)(=O)N(CCO)CCO)c1)c1cnn2c(C(F)F)cc(-c3ccc(C(F)(F)F)cc3)nc12" , melting point observed: 208 °C

Recorded result, "O=C(Nc1ccc(Oc2ccccc2)cc1)N1CCN(c2ncnc3cc(OCc4ccccc4)c(OCc4ccccc4)cc23)CC1" , melting point: 137 to 138 °C

----------
measured-endpoint: melting point

>  <smiles-structure>
C=Cc1cnc(-c2ncccn2)nc1

>  <melting point>
150 °C

$$$$
>  <smiles-structure>
O=C(O)Cn1ccc(=O)n(Cc2cccc([N+](=O)[O-])c2)c1=O

>  <melting point>
161 to 162 °C

$$$$
>  <smiles-structure>
O=C(O)c1ccccc1Sc1ccc(F)cc1[N+](=O)[O-]

>  <melting point>
167 to 168 °C

$$$$

Please look at the following molecule next.
// sample "CC(=O)NC[C@H]1CN(c2ccc(C3CCOCC3)cc2)C(=O)O1" , its melting point was 185 to 187 °C

----------
Quick reference for melting point among some compounds

Example entries and their recorded answers appear below.
>  <compound>
Cc1oc(-c2ccccc2)nc1COc1ccc(CCCC2OC(=O)NC2=O)cc1F (configuration not stated)

>  <reading>
180 to 181 °C

$$$$
>  <compound>
C#CCC1(O)CCCCC1

>  <reading>
53 to 54 °C

$$$$
>  <compound>
COc1cc(C(=O)Nc2cccc3c2CCN(C)C3)cc(OC)c1OC

>  <reading>
143 °C

$$$$
>  <compound>
Oc1c2c3c(ccnc3c3ccccc13)CCC2

>  <reading>
260 °C

$$$$
>  <compound>
CCOc1ccc(S(=O)(=O)N(CC(=O)NN=C2C(=O)Nc3ccccc32)c2ccccc2)cc1

>  <reading>
136 °C

$$$$

Record summary for "O=[N+]([O-])c1cccc(Oc2cccc(-c3nnc(Nc4ccc(Cl)c(Cl)c4)s3)c2)c1" : reported melting point = 210 to 212 °C

Measured melting point of CC(C)N(CCC(C(N)=O)(c1ccccc1)C1CCCCN1)C(C)C (configuration not stated) : 107 to 108 °C

The reported value for "CCCO[C@@H](C)C(=O)Oc1ccc(-c2ccc(O)cc2)cc1" in terms of melting point is 120 °C

Summary for this compound, "Cc1c(Br)csc1C#N" : melting point is 54 to 58 °C

// melting point value for "CC(C)NS(=O)(=O)c1cccc(F)c1C#N" : 184 to 189 °C

Record "COc1ccc(CCNC(=O)c2ccc3n2Cc2ccccc2N(C(=O)c2ccc(-c4ccccc4C)c(C)c2)C3)cc1" , field melting point: 170 to 172 °C

Form field melting point, entry "C=Cc1ccc(CN2C(=O)c3ccccc3C2=O)c(Cl)c1" : 141 to 143 °C

Record summary for "CCc1cccc(Sc2ccccc2)c1NC(=O)CC1c2ccccc2Oc2ccccc21" : reported melting point = 237 to 239 °C

Value of melting point reported for the compound "COc1cc(CCI)cc(OC)c1" is 30 to 33 °C

Looking up "CC(C)(C)c1cc(C(=O)c2ccccc2)cc(CN2CCC(O)CC2)c1O" , I found its melting point recorded as 156 to 157 °C

Lab book: melting point of "CCc1oc(-c2ccc(C(F)(F)F)cc2)cc1CCC(=O)Nc1cccc(CSCC(=O)O)c1" noted as 139 to 141 °C

----------
Each entry below lists one item and its recorded melting point value.

>  <smiles-structure>
COc1cc(OC)cc(S(=O)(=O)c2ccc([N+](=O)[O-])c(C)c2)c1

>  <melting point>
125 to 127 °C

$$$$
>  <smiles-structure>
CSc1c(C(=O)NN=Cc2ccc(Cl)cc2)[nH]c2ccccc12

>  <melting point>
232 to 235 °C

$$$$
>  <smiles-structure>
CC1(C)OC(c2ccc(S(C)(=O)=O)cc2)=C(c2cccc([N+](=O)[O-])c2)C1=O

>  <melting point>
158 to 159 °C

$$$$
>  <smiles-structure>
CCCCc1nc[nH]c(=O)c1Cc1ccc(-c2ccccc2C(=O)O)cc1

>  <melting point>
197 to 200 °C

$$$$

Note: attention shifts to another entry.
Short answer for "CC(C)(C)OC(=O)N[C@H](Cc1ccccc1)C(=O)NCC(=O)OCc1ccccc1" : melting point was 133 to 134 °C
